B1: TPR t1 (parent)
chain: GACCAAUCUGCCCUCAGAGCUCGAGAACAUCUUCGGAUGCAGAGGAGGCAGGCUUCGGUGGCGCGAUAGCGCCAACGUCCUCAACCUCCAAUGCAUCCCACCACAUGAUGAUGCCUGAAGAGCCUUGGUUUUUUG

- Variants of: B1
- Protocol: polymerase ribozyme fitness, log enrichment relative to wild type (log ratio); higher = more active; in vitro selection for triplet polymerase activity
Labels assigned by polymerase ribozyme fitness (log ratio) range: bottom bin (below -4), middle bin (-4 to below -2), top bin (-2 or more)

Completed entries (count: 4):
variant_descriptor="A27U G63U U96G G127C" label_value="bottom bin"
variant_descriptor="C8A G25U A26C C40U G63U C88G U112C C123A C124A U130A" label_value="bottom bin"
variant_descriptor="A43C U78C C88U G93A" label_value="middle bin"
variant_descriptor="U96G G120A" label_value="top bin"

Incoming: Please report the category associated with C62U C76U , nothing else.
Outgoing: top bin

Incoming: Given C82U C88A , name the class its polymerase ribozyme fitness (log ratio) places it in.
Outgoing: top bin

Incoming: Could you tell me which band A111C A119U belongs to?
Outgoing: middle bin

Incoming: Exam item: assign G48U A105C to the correct category.
Outgoing: middle bin

Incoming: Please report the category associated with C56A G71A U78G G128C U129A , nothing else.
Outgoing: bottom bin

Incoming: Lab note: which band did C8G U116C land in?
Outgoing: top bin

Incoming: Which category fits this record: C56U A95C G128C
Outgoing: middle bin

Incoming: Each variant maps to one class by polymerase ribozyme fitness (log ratio). Which class for A18U C94U ?
Outgoing: middle bin

Incoming: Which category does the recorded polymerase ribozyme fitness (log ratio) put "U81C" in?
Outgoing: top bin

Incoming: # bin label for A50U U55C U92G A118G
Outgoing: bottom bin

Incoming: Could you place C8G U14G A43C G47U C82G U133A in its proper category? Many thanks.
Outgoing: middle bin
